molecular target: UniProt P52333; assay: JAK3 kinase ADP-Glo assay (Example 60)
Sequence (P52333 795-1124 limits assumed): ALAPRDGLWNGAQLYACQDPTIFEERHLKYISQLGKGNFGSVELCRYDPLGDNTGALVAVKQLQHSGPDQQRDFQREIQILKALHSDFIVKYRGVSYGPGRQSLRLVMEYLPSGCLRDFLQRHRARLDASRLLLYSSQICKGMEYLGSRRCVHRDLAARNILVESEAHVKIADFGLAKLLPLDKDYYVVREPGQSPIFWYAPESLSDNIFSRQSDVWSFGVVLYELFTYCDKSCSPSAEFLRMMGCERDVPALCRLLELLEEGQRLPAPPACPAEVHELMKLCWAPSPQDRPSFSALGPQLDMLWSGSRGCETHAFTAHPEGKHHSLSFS
property: pIC50
Reminder that pIC50 is minus the log10 of a molar concentration.

Reference set (10 entries):
[[record]]
molecule = "CCc1cc(O)c(F)cc1-c1ccc2c(-c3nc4c([nH]3)CN(C(=O)N3CC(C#N)C3)C4)n[nH]c2c1"
property = "pIC50"
reported = 9.40

[[record]]
molecule = "CCc1cc(O)c(F)cc1-c1ccc2c(-c3nc4c([nH]3)CN(C(=O)N3CCOCC3)C4)n[nH]c2c1"
property = "pIC50"
reported = 9.43

[[record]]
molecule = "CCc1cc(O)c(F)cc1-c1ccc2c(-c3nc4c([nH]3)CN(CC3CCC3)C4)n[nH]c2c1"
property = "pIC50"
reported = 9.01

[[record]]
molecule = "CCc1cc(O)c(F)cc1-c1ccc2c(-c3nc4c([nH]3)CN(C(=O)N(C)C)C4)n[nH]c2c1"
property = "pIC50"
reported = 9.42

[[record]]
molecule = "CCc1cc(O)c(F)cc1-c1cc(C)c2c(-c3nc4c([nH]3)CN(C(=O)N3CC[C@H](O)C3)C4)n[nH]c2c1"
property = "pIC50"
reported = 8.69

[[record]]
molecule = "CCc1cc(O)c(F)cc1-c1ccc2c(-c3nc4c([nH]3)CN(C3CCOCC3)C4)n[nH]c2c1"
property = "pIC50"
reported = 9.31

[[record]]
molecule = "CCc1cc(O)c(F)cc1-c1ccc2c(-c3nc4c([nH]3)CN(C(=O)N3CC5(CNC5)C3)C4)n[nH]c2c1"
property = "pIC50"
reported = 9.33

[[record]]
molecule = "CCc1cc(O)c(F)cc1-c1ccc2c(-c3nc4c([nH]3)CN(S(=O)(=O)C3CCC3)C4)n[nH]c2c1"
property = "pIC50"
reported = 8.64

[[record]]
molecule = "CCc1cc(O)c(F)cc1-c1ccc2c(-c3nc4c([nH]3)CN(C(=O)OC)C4)n[nH]c2c1"
property = "pIC50"
reported = 8.66

[[record]]
molecule = "CCc1cc(O)c(F)cc1-c1ccc2c(-c3nc4c([nH]3)CN(C(=O)N3CCN(CC)CC3)C4)n[nH]c2c1"
property = "pIC50"
reported = 9.85


Simply: `CCc1cc(O)c(F)cc1-c1ccc2c(-c3nc4c([nH]3)CN(CC3CC3)C4)n[nH]c2c1` , UniProt P52333, pIC50 = 8.95

Simply: `CCc1cc(O)c(F)cc1-c1ccc2c(-c3nc4c([nH]3)CN(C(=O)N3CCN(C)CC3)C4)n[nH]c2c1` , UniProt P52333, pIC50 = 9.74

Simply: `CCc1cc(O)c(F)cc1-c1ccc2c(-c3nc4c([nH]3)CN(C(=O)CC3CC3)C4)n[nH]c2c1` , UniProt P52333, pIC50 = 9.32

* * *

Here the recorded IC50 is given for each entry.
biological target: JAK1 (Homo sapiens); assay: JAK1 kinase ADP-Glo assay (Example 59); format: biochemical; parameters: purchased Invitrogen PV4774; settings: JAK1 (Invitrogen) 4 nM, ATP 20 μM, IRS1 0.05 mg/mL, 25° C. 60 min, read-out: IC50 (nM), JAK1 Experiment
Sequence (P23458 866-1154 limits assumed): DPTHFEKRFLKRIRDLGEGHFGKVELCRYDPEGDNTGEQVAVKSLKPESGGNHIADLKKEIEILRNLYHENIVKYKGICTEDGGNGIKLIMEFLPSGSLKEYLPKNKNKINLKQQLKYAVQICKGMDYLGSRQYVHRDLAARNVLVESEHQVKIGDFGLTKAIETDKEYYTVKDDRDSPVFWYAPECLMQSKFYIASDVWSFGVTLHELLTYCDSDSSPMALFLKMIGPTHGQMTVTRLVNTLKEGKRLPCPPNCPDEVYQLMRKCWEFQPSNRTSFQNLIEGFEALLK
Give the number; nM is assumed, so skip it.

Reference set (3 entries):
[[record]]
smi = "CCc1cc(O)c(F)cc1-c1ccc2c(-c3nc4c([nH]3)CN(C(=O)c3cnc(N5CCN(C)CC5)cn3)C4)n[nH]c2c1"
reported = 0.152

[[record]]
smi = "CCc1cc(O)c(F)cc1-c1ccc2c(-c3nc4c([nH]3)CN(C(=O)c3cnc(N5CCOCC5)cn3)C4)n[nH]c2c1"
reported = 0.138

[[record]]
smi = "CCc1cc(O)ccc1-c1ccc2c(-c3nc4c([nH]3)CN(C(=O)c3cnc(N5CCN(C)CC5)cn3)C4)n[nH]c2c1"
reported = 0.121


What the record says about `CCc1cc(O)c(F)cc1-c1ccc2c(-c3nc4c([nH]3)CN(S(=O)(=O)c3ccccc3)C4)n[nH]c2c1` : IC50 is 0.943

What the record says about `CCc1cc(O)c(F)cc1-c1ccc2c(-c3nc4c([nH]3)CN(C(=O)C3CCN(C)CC3)C4)n[nH]c2c1` : IC50 is 0.16

* * *

target: JAK2 (Homo sapiens); experiment: JAK2 kinase ADP-Glo assay (Example 60)
Sequence (O60674 826-1132 limits assumed): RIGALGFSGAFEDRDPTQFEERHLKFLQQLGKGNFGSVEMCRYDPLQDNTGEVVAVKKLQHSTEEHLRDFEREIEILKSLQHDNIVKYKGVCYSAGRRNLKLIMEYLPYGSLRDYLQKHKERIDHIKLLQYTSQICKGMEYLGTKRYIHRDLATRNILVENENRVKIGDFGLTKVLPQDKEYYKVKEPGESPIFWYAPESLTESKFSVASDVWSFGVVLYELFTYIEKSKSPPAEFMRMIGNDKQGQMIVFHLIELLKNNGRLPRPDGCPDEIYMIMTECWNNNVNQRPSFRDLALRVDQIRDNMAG
Here the recorded log10 IC50 is given for each entry.
Quick note: numbers are log10 of IC50, with nM as the unit.

Reference set (5 entries):
[[record]]
smi = "CCNC(=O)N1Cc2nc(-c3n[nH]c4cc(-c5cc(F)c(O)cc5CC)ccc34)[nH]c2C1"
reported = 0.27

[[record]]
smi = "CCC(=O)N1Cc2nc(-c3n[nH]c4cc(-c5cc(F)c(O)cc5CC)ccc34)[nH]c2C1"
reported = -0.61

[[record]]
smi = "CCc1cc(O)c(F)cc1-c1ccc2c(-c3nc4c([nH]3)CN(C(=O)N3CCCCC3)C4)n[nH]c2c1"
reported = 0.12

[[record]]
smi = "CCc1cc(O)c(F)cc1-c1ccc2c(-c3nc4c([nH]3)CN(C(=O)N3CCC(O)CC3)C4)n[nH]c2c1"
reported = -0.19

[[record]]
smi = "CCc1cc(O)c(F)cc1-c1ccc2c(-c3nc4c([nH]3)CN(CC3CC3)C4)n[nH]c2c1"
reported = -0.36


What the record says about `CCc1cc(O)c(F)cc1-c1ccc2c(-c3nc4c([nH]3)CN(C(=O)N3CCN(C)CC3)C4)n[nH]c2c1` : log10 IC50 is -0.78

What the record says about `CCc1cc(O)c(F)cc1-c1ccc2c(-c3nc4c([nH]3)CN(C(=O)CC#N)C4)n[nH]c2c1` : log10 IC50 is 0.49

* * *

biological target: UniProt:O60674; assay: JAK2 kinase ADP-Glo assay (Example 60)
Here the recorded IC50 is given for each entry.
Give the number; nM is assumed, so skip it.

Reference set (4 entries):
[[record]]
compound = "CCc1cc(O)c(F)cc1-c1ccc2c(-c3nc4c([nH]3)CN(C(=O)N3CC5(CNC5)C3)C4)n[nH]c2c1 [MDI-261]"
reported = 0.703

[[record]]
compound = "CCc1cc(O)c(F)cc1-c1ccc2c(-c3nc4c([nH]3)CN(C(=O)N3CC[C@@H](O)C3)C4)n[nH]c2c1 [MDI-243]"
reported = 0.499

[[record]]
compound = "CCc1cc(O)c(F)cc1-c1ccc2c(-c3nc4c([nH]3)CN(C(=O)c3ccnnc3)C4)n[nH]c2c1 [MDI-214]"
reported = 0.273

[[record]]
compound = "CCc1cc(O)c(F)cc1-c1ccc2c(-c3nc4c([nH]3)CN(S(=O)(=O)C3CC3)C4)n[nH]c2c1 [MDI-218]"
reported = 0.614


What the record says about CCc1cc(O)c(F)cc1-c1ccc2c(-c3nc4c([nH]3)CN(C(=O)NCCC#N)C4)n[nH]c2c1 [MDI-258] : IC50 is 3.31

What the record says about CCc1cc(O)c(F)cc1-c1ccc2c(-c3nc4c([nH]3)CN(S(=O)(=O)C3CCC3)C4)n[nH]c2c1 [MDI-219] : IC50 is 1.38

What the record says about CCc1cc(O)c(F)cc1-c1cnc2c(-c3nc4c([nH]3)CN(C(=O)C3CC3)C4)n[nH]c2c1 [MDI-237] : IC50 is 0.588

* * *

target: TYK2 (Homo sapiens, UniProt P29597); assay: TYK2 kinase ADP-Glo assay (Example 60)
Sequence (P29597 871-1187 limits assumed): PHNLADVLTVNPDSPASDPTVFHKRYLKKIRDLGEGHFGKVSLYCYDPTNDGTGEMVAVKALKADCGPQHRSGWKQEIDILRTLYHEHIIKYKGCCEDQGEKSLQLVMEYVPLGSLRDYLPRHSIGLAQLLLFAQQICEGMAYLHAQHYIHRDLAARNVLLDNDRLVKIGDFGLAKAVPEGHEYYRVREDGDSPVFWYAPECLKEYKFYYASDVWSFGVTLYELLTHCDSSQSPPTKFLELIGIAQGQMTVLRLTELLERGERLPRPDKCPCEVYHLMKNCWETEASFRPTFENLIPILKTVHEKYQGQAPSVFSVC
property: IC50

[[record]]
compound = "CCc1cc(O)c(F)cc1-c1cnc2c(-c3nc4c([nH]3)CN(C(=O)C3CC3)C4)n[nH]c2c1"
testtarget = "TYK2 (Homo sapiens, UniProt P29597)"
property = "IC50"
reported = "9.68 nM"


Simply: `CCc1cc(O)c(F)cc1-c1ccc2c(-c3nc4c([nH]3)CN(C(=O)N(C)C)C4)n[nH]c2c1` , TYK2 (Homo sapiens, UniProt P29597), IC50 = 0.684 nM

Simply: CCc1cc(O)c(F)cc1-c1ccc2c(-c3nc4c([nH]3)CN(C(=O)NC3CCOC3)C4)n[nH]c2c1 (stereo not shown) , TYK2 (Homo sapiens, UniProt P29597), IC50 = 1.33 nM

Simply: `CCc1cc(O)c(F)cc1-c1ccc2c(-c3nc4c([nH]3)CN(C(=O)N3CC[C@H](O)C3)C4)n[nH]c2c1` , TYK2 (Homo sapiens, UniProt P29597), IC50 = 1.62 nM

* * *

target: JAK2 (Homo sapiens); test: JAK2 kinase ADP-Glo assay (Example 59)
Sequence (O60674 808-1132 limits assumed): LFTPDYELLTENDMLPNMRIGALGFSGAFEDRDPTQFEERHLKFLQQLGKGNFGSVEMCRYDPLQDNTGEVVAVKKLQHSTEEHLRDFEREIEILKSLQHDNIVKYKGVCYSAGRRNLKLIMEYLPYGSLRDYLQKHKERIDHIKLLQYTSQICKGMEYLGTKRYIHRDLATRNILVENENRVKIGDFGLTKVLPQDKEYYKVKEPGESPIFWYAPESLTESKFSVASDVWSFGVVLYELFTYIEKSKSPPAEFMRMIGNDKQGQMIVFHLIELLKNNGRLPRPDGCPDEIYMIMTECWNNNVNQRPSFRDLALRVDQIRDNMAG
property: IC50 (nM)
Give the number; nM is assumed, so skip it.

Reference set (3 entries):
[[record]]
smi = "CCc1cc(O)c(F)cc1-c1ccc2c(-c3nc4c([nH]3)CN(C(=O)c3cnc(N5CCOCC5)cn3)C4)n[nH]c2c1"
testtarget = "JAK2 (Homo sapiens)"
reported = 0.217

[[record]]
smi = "CCc1cc(O)c(F)cc1-c1ccc2c(-c3nc4c([nH]3)CN(C(=O)c3cnn(C)c3)C4)n[nH]c2c1"
testtarget = "JAK2 (Homo sapiens)"
reported = 0.279

[[record]]
smi = "CCc1cc(O)c(F)cc1-c1ccc2c(-c3nc4c([nH]3)CN(C(=O)C3CCC3)C4)n[nH]c2c1"
testtarget = "JAK2 (Homo sapiens)"
reported = 0.198


# context switch: different compound, same IC50
Simply: `CCc1cc(O)c(F)cc1-c1ccc2c(-c3nc4c([nH]3)CN(C(=O)c3cnc(N5CCCCC5)cn3)C4)n[nH]c2c1` , JAK2 (Homo sapiens), IC50 = 0.772
